measurement-target: CFTR ΔF508 mutant (Homo sapiens, UniProt P13569, DEL508-508)
Construct: expressed in transfected cells; host or cells: CFBE41o- (adenoviral transduction)
Sequence (P13569 with tags, fused parts or gaps DEL508-508): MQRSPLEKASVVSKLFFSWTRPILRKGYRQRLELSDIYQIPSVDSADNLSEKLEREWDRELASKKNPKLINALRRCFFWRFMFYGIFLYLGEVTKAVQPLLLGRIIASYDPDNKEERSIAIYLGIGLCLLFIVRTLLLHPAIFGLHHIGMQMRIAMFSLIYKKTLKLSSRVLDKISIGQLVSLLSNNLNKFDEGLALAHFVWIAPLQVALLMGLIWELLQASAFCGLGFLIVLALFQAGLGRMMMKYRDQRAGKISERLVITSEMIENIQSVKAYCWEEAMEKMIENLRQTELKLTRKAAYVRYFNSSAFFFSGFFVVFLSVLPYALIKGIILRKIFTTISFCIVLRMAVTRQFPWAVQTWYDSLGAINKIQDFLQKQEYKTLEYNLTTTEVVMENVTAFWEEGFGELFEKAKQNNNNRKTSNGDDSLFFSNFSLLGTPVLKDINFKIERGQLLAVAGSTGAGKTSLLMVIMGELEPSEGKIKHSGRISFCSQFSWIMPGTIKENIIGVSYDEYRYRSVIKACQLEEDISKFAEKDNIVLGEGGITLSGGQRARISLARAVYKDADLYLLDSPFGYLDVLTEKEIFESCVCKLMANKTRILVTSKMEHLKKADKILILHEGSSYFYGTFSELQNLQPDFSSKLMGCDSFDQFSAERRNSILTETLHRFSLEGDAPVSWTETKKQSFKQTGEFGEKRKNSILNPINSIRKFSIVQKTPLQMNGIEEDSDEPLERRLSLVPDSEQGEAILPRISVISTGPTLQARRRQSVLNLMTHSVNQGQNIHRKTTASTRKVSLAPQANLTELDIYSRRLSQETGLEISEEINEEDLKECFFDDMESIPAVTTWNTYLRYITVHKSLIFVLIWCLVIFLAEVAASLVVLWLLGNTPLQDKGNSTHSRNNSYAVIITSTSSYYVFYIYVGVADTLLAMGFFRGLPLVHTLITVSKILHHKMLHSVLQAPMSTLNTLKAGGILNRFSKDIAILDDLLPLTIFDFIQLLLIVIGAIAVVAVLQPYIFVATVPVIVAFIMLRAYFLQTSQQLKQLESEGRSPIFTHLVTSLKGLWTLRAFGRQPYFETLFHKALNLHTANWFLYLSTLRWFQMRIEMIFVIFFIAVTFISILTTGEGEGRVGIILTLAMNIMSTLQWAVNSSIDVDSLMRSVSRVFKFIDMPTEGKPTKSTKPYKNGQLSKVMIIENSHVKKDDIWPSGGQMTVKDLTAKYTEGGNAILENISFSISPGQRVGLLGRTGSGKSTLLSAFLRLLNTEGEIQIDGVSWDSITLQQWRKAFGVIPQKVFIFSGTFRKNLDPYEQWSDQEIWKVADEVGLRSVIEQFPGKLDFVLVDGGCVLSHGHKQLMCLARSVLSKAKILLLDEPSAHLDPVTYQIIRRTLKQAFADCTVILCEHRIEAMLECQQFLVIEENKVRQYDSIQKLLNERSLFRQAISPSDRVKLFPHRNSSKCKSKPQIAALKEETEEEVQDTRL
test: YFP-halide influx assay for the CFTR-ΔF508 mutation, gluconate buffer
Assay type: cell-based
test-conditions: CFBE41o- cells, forskolin 10.67 μM
pEC50: −log10 of the molar value.
assay-metric: pEC50

Field: example entries. Status: answers known.
{"columns": ["molecule", "pEC50"],
 "data": [
  ["NC(=O)c1cc(S(=O)(=O)N2CCCCC2)sc1NC(=O)c1c[nH]cn1 [Compound 35]", 5.48],
  ["NC(=O)c1cc(S(=O)(=O)c2ccccc2)sc1NC(=O)c1ccccc1F [Compound 100]", 6.92],
  ["NC(=O)c1cc(S(=O)(=O)N2CCOCC2)sc1NC(=O)C1(O)CC1 [Compound 131]", 6.04]
]}

[1] CN(CCC(F)(F)F)S(=O)(=O)c1cc(C(N)=O)c(NC(=O)c2cc[nH]n2)s1 [Compound 194]
[2] CCCC(=O)Nc1sc(S(=O)(=O)N2CCCCC2)cc1C(N)=O [Compound 28]
[3] CC(C)c1cc(C(=O)Nc2sc(S(=O)(=O)N3CCC(F)(F)CC3)cc2C(N)=O)c(O)c(C(C)C)c1 [Compound 215]
[4] CCc1cc(C(=O)Nc2sc(S(=O)(=O)c3cccc(F)c3)cc2C(N)=O)n[nH]1 [Compound 114]
[5] NC(=O)c1cc(S(=O)(=O)N2CCOCC2)sc1NC(=O)C1(O)CCC1 [Compound 199]
Enquiry: Please produce an ascending ranking of these molecules based on pEC50. Give your ranking as a list of the labels in the requested order.
Return: 5, 2, 3, 1, 4

---

measurement-target: CFTR G551D mutant (Homo sapiens, UniProt P13569, G551D)
Construct: expressed in transfected cells; host or cells: HEK293 (reverse transfection with plasmid)
Sequence (P13569 whole entry G551D): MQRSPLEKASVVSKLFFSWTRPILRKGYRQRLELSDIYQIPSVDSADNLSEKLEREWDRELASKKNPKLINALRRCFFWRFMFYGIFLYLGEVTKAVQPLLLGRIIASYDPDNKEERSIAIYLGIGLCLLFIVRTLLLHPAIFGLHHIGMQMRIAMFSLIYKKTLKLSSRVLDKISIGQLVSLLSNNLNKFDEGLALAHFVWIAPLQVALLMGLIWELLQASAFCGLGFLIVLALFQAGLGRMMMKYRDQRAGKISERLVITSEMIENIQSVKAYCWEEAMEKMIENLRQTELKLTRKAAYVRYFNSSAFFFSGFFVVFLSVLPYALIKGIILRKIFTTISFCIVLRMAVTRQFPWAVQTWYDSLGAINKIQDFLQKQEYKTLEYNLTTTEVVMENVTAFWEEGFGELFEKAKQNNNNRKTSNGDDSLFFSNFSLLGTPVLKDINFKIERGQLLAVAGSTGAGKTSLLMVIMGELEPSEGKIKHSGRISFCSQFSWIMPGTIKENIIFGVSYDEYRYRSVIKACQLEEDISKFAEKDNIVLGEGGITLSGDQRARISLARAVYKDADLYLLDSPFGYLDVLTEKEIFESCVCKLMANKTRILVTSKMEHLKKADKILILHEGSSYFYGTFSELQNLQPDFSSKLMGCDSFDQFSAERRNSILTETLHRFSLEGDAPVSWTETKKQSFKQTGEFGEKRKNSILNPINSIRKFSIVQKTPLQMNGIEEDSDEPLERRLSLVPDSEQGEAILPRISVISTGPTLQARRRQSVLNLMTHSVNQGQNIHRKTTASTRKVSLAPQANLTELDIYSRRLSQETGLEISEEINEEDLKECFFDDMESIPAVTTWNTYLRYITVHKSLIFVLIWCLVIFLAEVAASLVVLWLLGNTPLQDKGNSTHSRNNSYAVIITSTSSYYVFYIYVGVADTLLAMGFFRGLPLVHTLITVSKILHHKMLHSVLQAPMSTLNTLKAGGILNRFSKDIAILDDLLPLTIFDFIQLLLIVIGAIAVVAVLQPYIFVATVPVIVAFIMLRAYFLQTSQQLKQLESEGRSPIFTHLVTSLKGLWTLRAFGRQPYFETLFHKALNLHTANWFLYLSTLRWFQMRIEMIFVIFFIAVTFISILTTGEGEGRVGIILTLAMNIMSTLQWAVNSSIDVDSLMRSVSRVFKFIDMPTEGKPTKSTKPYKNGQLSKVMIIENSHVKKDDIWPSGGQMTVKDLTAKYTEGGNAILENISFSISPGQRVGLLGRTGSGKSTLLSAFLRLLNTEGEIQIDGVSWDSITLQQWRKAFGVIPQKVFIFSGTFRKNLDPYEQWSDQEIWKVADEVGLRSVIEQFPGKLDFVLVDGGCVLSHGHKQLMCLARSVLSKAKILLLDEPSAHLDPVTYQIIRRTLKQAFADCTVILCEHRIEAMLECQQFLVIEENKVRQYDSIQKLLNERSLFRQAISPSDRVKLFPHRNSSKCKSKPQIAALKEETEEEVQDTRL
test: YFP-halide influx assay for the CFTR-G551D mutation
Format: cell-based
test-conditions: HEK293 cells, forskolin 10.67 μM
assay-metric: EC50 (nM)

{"columns": ["molecule", "EC50 / nM"],
 "data": [
  ["CC(C)(O)C(=O)Nc1sc(S(=O)(=O)N2CCC(F)(F)CC2)cc1C(N)=O [Compound 308]", 1030],
  ["COc1ccc(C(F)(F)F)c(S(=O)(=O)c2cc(C(N)=O)c(NC(=O)C(C)(C)O)s2)n1 [Compound 420]", 197],
  ["CN(Cc1ccccc1)S(=O)(=O)c1cc(C(N)=O)c(NC(=O)c2ccn[nH]2)s1 [Compound 73]", 232],
  ["CC(CO)C(=O)Nc1sc(S(=O)(=O)c2ccc(Cl)cc2)cc1C(N)=O (stereo not shown) [Compound 362]", 1230],
  ["CC(C)(O)C(=O)Nc1sc(S(=O)(=O)c2ncc(C(F)(F)F)cc2F)cc1C(N)=O [Compound 410]", 708],
  ["CC(O)C(=O)Nc1sc(S(=O)(=O)c2ccc(F)cc2Cl)cc1C(N)=O (stereo not shown) [Compound 329]", 1400],
  ["Cc1cc(F)ccc1S(=O)(=O)c1cc(C(N)=O)c(NC(=O)C2(O)CC2)s1 [Compound 222]", 583],
  ["Cc1cc(S(=O)(=O)c2cc(C(N)=O)c(NC(=O)C(C)(C)O)s2)ccn1 [Compound 299]", 3330],
  ["NC(=O)c1cc(S(=O)(=O)c2ccc(F)cc2Br)sc1NC(=O)C1(O)CC1 [Compound 264]", 1020],
  ["CC(C)(O)C(=O)Nc1sc(S(=O)(=O)c2nc(C(F)(F)F)ccc2C(F)(F)F)cc1C(N)=O [Compound 412]", 96.4]
]}

[I] CC(C)(O)C(=O)Nc1sc(S(=O)(=O)c2cc(Cl)ccc2OC(F)F)cc1C(N)=O [Compound 401]
[II] C[C@H](O)C(=O)Nc1sc(S(=O)(=O)c2c(Cl)cc(F)cc2Cl)cc1C(N)=O [Compound 355]
[III] C[C@H](O)C(=O)Nc1sc(S(=O)(=O)c2ccc(OC(F)(F)F)cc2)cc1C(N)=O [Compound 331]
[IV] CC(C)(O)C(=O)Nc1sc(S(=O)(=O)c2cccc3c2OC(F)(F)O3)cc1C(N)=O [Compound 330]
[V] NC(=O)c1cc(S(=O)(=O)c2ccc(OC(F)(F)F)cc2F)sc1NC(=O)C1(CO)CC1 [Compound 435]
Enquiry: Sequence the entries by EC50, beginning with the highest number. // rank by listing labels in the order requested
Return: V, II, III, I, IV
